B1: Caulobacter ParB omega fusion; a variant is named by its letters at X, in order, B8GW30 (parent)
chain: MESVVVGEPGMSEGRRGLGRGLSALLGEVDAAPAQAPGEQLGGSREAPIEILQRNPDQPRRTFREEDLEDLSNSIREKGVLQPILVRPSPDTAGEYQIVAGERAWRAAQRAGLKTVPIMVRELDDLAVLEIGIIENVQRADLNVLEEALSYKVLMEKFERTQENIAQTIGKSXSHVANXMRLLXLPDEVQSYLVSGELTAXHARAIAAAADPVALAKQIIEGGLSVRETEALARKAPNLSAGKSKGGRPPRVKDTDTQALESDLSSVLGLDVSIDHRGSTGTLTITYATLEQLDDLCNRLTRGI

variants of: B1; assay: one-hybrid fitness for binding NBS DNA (the Noc-binding site; scaled: cognate 1, non-cognate 0); higher = stronger binding; conditions: with NBS DNA site
Whole data set: some 81,000 sequences, median “one-hybrid fitness for binding NBS DNA” near -0.1, cut for the highest 2% near 0.36. This excerpt belongs to a sample that is enriched for the highest values.
readout-label: one-hybrid fitness for binding NBS DNA

In [3]: df
Out[3]:
   variant_identifier  value_observed
0                PFAM           ≤ 0.2

input: Any idea what one-hybrid fitness for binding NBS DNA was measured for ATSP ?
output: ≤ 0.2

input: What value of measured one-hybrid fitness for binding NBS DNA is listed for SHRM ?
output: ≤ 0.2
